- STUDY TARGET: T1, Peptide F (monkey PAR-2), N-terminal biotinylated (Monkey (Macaca mulatta), N-terminal biotin via G4S linker)
- T1 construct: also called Peptide F N-Term
- T1 sequence (peptide, as listed by the source): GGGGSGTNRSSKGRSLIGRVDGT
- MEASUREMENT DESCRIPTION: SPR, peptide immobilized
Exercise: state measured T1/2 for each of the binders provided.
Give bare numbers, in min.

H4H584P (antibody, human IgG4, V domains shown, also called H1H584P variable regions) VH: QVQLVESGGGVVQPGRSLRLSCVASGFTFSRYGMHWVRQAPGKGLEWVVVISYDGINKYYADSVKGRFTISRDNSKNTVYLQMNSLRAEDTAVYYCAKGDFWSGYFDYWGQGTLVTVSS VL: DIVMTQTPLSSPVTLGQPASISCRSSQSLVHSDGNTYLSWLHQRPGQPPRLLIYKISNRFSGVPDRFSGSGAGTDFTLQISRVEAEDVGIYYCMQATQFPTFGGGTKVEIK	40

# context switch: different binder, same T1/2
The binder identified as H4H583P (antibody, human IgG4, V domains shown, also called H1H583P variable regions) VH: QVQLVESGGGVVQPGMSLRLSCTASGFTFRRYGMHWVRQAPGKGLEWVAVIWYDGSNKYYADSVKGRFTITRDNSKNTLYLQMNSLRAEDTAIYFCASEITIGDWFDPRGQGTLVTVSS VL: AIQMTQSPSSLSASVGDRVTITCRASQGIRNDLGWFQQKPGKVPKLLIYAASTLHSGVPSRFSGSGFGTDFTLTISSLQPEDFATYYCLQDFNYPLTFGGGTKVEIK registered its T1/2 at 73
